Entries and their measured IC50 follow.
Biological target: T1, human MIC-1 receptor (hGFRAL, GDNF family receptor alpha like), full length (human, UniProt Q6UXV0 19-394)
T1 construct: whole, on cells
T1 sequence (looked up): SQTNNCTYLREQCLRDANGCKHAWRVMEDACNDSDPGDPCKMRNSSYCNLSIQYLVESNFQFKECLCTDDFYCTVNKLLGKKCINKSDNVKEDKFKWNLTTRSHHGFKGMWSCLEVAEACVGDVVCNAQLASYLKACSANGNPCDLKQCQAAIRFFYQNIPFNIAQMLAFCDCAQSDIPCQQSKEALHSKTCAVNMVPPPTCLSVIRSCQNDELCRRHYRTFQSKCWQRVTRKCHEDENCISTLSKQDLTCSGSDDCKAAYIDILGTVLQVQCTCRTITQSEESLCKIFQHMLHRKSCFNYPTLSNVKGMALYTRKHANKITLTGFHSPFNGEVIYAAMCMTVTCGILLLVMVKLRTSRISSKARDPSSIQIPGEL
Test: SPA: displacement of 50 pM human [125I]-MIC-1 from BHK21-hGFRAL-IRES-hRET cell membranes
Description: Binding potencies of MIC-1 compounds were calculated by IC50 of displacement curves. BHK21-hGFRAL-IRES-hRET cells were cultured at +37° C. in a humidified atmosphere with 5% CO₂ in complete medium consisting of DMEM with high glucose and sodium pyrovate, heat inactivated 10% Fetal Bovine Serum, 1% Penicillin-Streptomycin, 1 mg/ml G418-Geneticin and 400 ug/ml Hygromycin. […]
# value in nM; strip the unit string

Give the measured IC50 of Compound 07 (ligand, Cys-15 (residue 18 of SEQ ID NO: 292): S{Beta}-[2-[2-[[2-[2-[2-[[2-[2-[2-[[(4S)-4-carboxy-4-(17-carboxyheptadecanoylamino)butanoyl]amino]ethoxy]ethoxy]acetyl]amino]ethoxy]ethoxy]acetyl]amino]ethylamino]-2-oxoethyl]Cys (protractor of Example 10.4), homodimer, two protractors per dimer) SEPATSGSETPGTSESACPESGPGTSTEPSEGARGDHCPLGPGRCCRLHTVRASLEDLGWADWVLSPREVQVTMCIGACPSQFRAANLHAQIKTSLHRLKPDTVPAPCCVPASYNPLVLIQKTDTGVSLQTYDDLLAKDCHCI .
29

Give the measured IC50 of Compound 15 (ligand, alpha-amino group of the N-terminal Ser-32 (residue 1 of SEQ ID NO: 312): N-[4-[[[2-[2-[2-[[2-[2-[2-[[(4S)-4-carboxy-4-(17-carboxyheptadecanoylamino)butanoyl]amino]ethoxy]ethoxy]acetyl]amino]ethoxy]ethoxy]acetyl]amino]methyl]phenyl]methyl (protractor of Example 10.1), also called monoalkylated) chain 1: SEPATSGSETPGTSESATPESGPGTSTEPSEGARGDHCPLGPGRCCRLHTVRASLEDLGWADWVLSPREVQVTMCIGACPSQFRAANLHAQIKTSLHRLRPDTVPAPCCVPASYNPLVLIQRTDTGVSLQTYDDLLARDCHCI chain 2: SEPATSGSETPGTSESATPESGPGTSTEPSEGARGDHCPLGPGRCCRLHTVRASLEDLGWADWVLSPREVQVTMCIGACPSQFRAANLHAQIKTSLHRLRPDTVPAPCCVPASYNPLVLIQRTDTGVSLQTYDDLLARDCHCI .
39

Let us examine a further case.
Give the measured IC50 of Compound 01 (ligand, Cys-29 (residue 4 of SEQ ID NO: 288): S{Beta}-[2-[2-[[2-[2-[2-[[2-[2-[2-[[(4S)-4-carboxy-4-(17-carboxyheptadecanoylamino)butanoyl]amino]ethoxy]ethoxy]acetyl]amino]ethoxy]ethoxy]acetyl]amino]ethylamino]-2-oxoethyl]Cys (protractor of Example 10.4), homodimer, two protractors per dimer) SEPCTSGSETPGTSESATPESGPGTSTEPSEGARGDHCPLGPGRCCRLHTVRASLEDLGWADWVLSPREVQVTMCIGACPSQFRAANMHAQIKTSLHRLKPDTVPAPCCVPASYNPMVLIQKTDTGVSLQTYDDLLAKDCHCI .
3.8
